System: T1, monkey GPC3-His protein (monkey)
T1 construct: Bought recombinant protein; also called monkey GPC3 protein
Method Notes: SPR, antibody captured on Protein A chip, monkey GPC3-His analyte;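 also: run at 25 °C with 240 s association and up to 600 s dissociation, double-referenced, kinetics fitted to a 1:1 Langmuir binding model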
Readout Label: log10 of koff (log10 of the value in s⁻¹)
Field: value | Transform: log10 | Quantity: koff | Unit: s⁻¹

The examples below pair each entry with its known result.
F1.145.22 (antibody, human IgG1, kappa, V domains shown, Human-murine chimeric antibody) VH: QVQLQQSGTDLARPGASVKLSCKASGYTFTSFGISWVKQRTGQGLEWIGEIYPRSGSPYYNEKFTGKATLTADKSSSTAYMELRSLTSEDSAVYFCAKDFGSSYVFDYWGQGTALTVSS VL: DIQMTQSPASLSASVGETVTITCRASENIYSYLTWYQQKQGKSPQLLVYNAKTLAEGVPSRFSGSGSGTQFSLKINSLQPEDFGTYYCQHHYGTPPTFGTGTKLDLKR: -3.79
F2.39.2 (antibody, human IgG1, kappa, V domains shown, Human-murine chimeric antibody) VH: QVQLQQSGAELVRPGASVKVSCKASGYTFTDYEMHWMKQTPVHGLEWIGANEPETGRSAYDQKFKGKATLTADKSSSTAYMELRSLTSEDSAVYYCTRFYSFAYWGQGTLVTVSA VL: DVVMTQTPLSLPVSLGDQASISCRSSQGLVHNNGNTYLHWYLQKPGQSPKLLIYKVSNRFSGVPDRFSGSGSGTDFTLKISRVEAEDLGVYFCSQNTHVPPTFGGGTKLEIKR: -2.66
F2.92.1 (antibody, human IgG1, kappa, V domains shown, Human-murine chimeric antibody) VH: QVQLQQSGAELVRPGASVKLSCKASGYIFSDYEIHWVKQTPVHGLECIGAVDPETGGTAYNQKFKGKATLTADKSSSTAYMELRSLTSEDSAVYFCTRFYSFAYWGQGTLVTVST VL: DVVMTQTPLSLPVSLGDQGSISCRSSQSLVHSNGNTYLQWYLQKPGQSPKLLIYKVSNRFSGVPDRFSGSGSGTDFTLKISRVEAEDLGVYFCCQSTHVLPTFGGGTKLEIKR: -3.66
F4.21.16 (antibody, human IgG1, kappa, V domains shown, Human-murine chimeric antibody) VH: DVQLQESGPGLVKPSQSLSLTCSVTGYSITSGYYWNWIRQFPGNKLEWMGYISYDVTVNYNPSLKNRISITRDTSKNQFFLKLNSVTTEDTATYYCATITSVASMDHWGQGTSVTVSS VL: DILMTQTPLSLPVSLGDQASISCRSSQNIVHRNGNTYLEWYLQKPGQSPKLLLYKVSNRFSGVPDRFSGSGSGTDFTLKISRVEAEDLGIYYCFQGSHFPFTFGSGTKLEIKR: -3.52
F1.111.11 (antibody, human IgG1, kappa, V domains shown, Human-murine chimeric antibody) VH: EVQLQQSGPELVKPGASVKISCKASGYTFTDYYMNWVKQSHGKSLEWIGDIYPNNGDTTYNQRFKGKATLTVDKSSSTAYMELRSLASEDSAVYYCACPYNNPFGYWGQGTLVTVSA VL: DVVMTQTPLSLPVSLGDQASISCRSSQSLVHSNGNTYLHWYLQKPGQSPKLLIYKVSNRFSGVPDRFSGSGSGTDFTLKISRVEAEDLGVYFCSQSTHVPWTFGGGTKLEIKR: -3.35
F4.26.1 (antibody, human IgG1, kappa, V domains shown, Human-murine chimeric antibody) VH: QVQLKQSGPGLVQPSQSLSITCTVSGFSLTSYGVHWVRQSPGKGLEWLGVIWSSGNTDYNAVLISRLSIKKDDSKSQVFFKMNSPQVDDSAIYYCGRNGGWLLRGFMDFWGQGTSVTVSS VL: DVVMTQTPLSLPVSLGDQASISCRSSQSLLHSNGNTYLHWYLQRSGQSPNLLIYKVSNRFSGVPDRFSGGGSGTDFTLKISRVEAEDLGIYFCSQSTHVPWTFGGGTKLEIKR: -3.23

Inquiry: Consider the binder F2.55.11 (antibody, human IgG1, kappa, V domains shown, Human-murine chimeric antibody) VH: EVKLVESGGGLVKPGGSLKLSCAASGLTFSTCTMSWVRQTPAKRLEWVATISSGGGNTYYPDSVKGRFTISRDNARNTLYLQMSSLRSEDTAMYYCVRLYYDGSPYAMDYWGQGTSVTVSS VL: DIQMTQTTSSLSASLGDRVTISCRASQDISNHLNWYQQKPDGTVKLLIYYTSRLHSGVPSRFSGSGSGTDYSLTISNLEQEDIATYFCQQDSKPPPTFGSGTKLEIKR . State its measured log10 of koff.
Reply text: -3.36
